Recorded values, source ChEMBL document CHEMBL2029216.

- PROCEDURE TEXT: Half life in rat plasma at 6.3 MBq, iv by HPLC analysis
- Format: ADME, organism-based
OBSERVED PROPERTY: half-life (min)
Give just the numeric value; min need not be written.

Quickly give me recorded half-life for C=C(CC)C(=O)c1ccc(OCC(=O)O)c(Cl)c1Cl [ETHACRYNIC ACID]
30

====

- PROCEDURE TEXT: Octanol-water partition coefficient, Log P of the compound at 12.6 uCi by Shake-flask method
- Assay type: physicochemical
OBSERVED PROPERTY: logP
Please give the numeric answer without any surrounding text.

Quickly give me recorded logP for C=C(CC)C(=O)c1ccc(OCC(=O)NCCCC[18F])c(Cl)c1Cl
1.47
